Target: SIRT3 (Homo sapiens)
Sequence (Q9NTG7 1-399): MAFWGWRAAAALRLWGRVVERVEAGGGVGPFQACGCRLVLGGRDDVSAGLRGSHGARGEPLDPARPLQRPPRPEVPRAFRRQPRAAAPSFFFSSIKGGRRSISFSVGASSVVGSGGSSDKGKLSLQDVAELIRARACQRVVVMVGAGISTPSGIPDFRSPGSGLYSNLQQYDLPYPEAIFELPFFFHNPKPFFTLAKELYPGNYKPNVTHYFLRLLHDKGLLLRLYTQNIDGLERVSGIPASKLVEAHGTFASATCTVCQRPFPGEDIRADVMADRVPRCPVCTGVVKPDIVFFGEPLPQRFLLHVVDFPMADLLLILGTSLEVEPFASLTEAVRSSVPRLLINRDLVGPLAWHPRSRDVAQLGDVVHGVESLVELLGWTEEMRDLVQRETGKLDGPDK
Experiment: SIRT3 deacetylation reaction, recombinant protein
Type: biochemical
Conditions: deacetylase activity, SD always ≤10%
Method: Next, the selectivity of the compounds for SIRT2 against other sirtuins was also determined. The compounds were tested at the final concentration of 150 µM in the deacetylation reaction of SIRT1, SIRT3 and SIRT6, with this last one being promoted by the addition of the SIRT6 activator MDL-800 and also in the depalmitoylation reaction of SIRT6.
TEST_READOUT: inhibition at 150 µM (%)

Study these solved cases before continuing.
RECORD_SMILES | STUDY_SYSTEM | ENDPOINT_RESULT
Cc1sc(NC(=O)NCc2ccccc2)nc1-c1ccc(Br)cc1 | SIRT3 (Homo sapiens) | 23
CCOC(=O)c1sc(NC(=O)Nc2cccc(OC)c2)nc1-c1ccc(Br)cc1 | SIRT3 (Homo sapiens) | 36
CSc1cccc(NC(=O)Nc2nc(-c3ccc(Br)cc3)c(C)s2)c1 | SIRT3 (Homo sapiens) | 20

1. CCOC(=O)c1sc(NC(=O)NCc2ccccc2)nc1-c1ccc(Br)cc1
2. COc1cccc(NC(=O)Nc2nc(-c3ccc(Br)cc3)c(C)s2)c1
// pick larger inhibition at 150 µM from pair: 1 vs 2 Let me know the label of the one you choose. 1
